# test.parameters: in n-butanol, 318.15 K
recorded.endpoint: solubility (mole fraction)
Please state the value as a number alone, without comment.

For reference, reported solubility (mole fraction) for O=Cc1ccc(O)cc1 stands at 0.259

----------
# test.parameters: in isopropanol, 318.15 K
recorded.endpoint: solubility (mole fraction)
Please state the value as a number alone, without comment.

For reference, reported solubility (mole fraction) for O=Cc1ccc(O)cc1 stands at 0.281

----------
# test.parameters: in 2-butanone, 278.15 K
recorded.endpoint: solubility (mole fraction)
Please state the value as a number alone, without comment.

For reference, reported solubility (mole fraction) for O=Cc1ccc(O)cc1 stands at 0.0731

----------
# test.parameters: in isopropanol, 293.15 K
recorded.endpoint: solubility (mole fraction)
Please state the value as a number alone, without comment.

For reference, reported solubility (mole fraction) for O=Cc1ccc(O)cc1 stands at 0.109

----------
# test.parameters: in 2-butanone, 313.15 K
recorded.endpoint: solubility (mole fraction)
Please state the value as a number alone, without comment.

For reference, reported solubility (mole fraction) for O=Cc1ccc(O)cc1 stands at 0.267

----------
# test.parameters: in ethanol, 318.15 K
recorded.endpoint: solubility (mole fraction)
Please state the value as a number alone, without comment.

For reference, reported solubility (mole fraction) for O=Cc1ccc(O)cc1 stands at 0.247

----------
# test.parameters: in ethyl acetate, 305.65 K
recorded.endpoint: solubility (mole fraction)

For reference, reported solubility (mole fraction) for O=Cc1ccc(O)cc1 stands at 0.2

----------
# test.parameters: in methanol, 308.15 K
recorded.endpoint: solubility (mole fraction)
Please state the value as a number alone, without comment.

For reference, reported solubility (mole fraction) for O=Cc1ccc(O)cc1 stands at 0.151

----------
# test.parameters: in n-propanol, 300.65 K
recorded.endpoint: solubility (mole fraction)
Please state the value as a number alone, without comment.

For reference, reported solubility (mole fraction) for O=Cc1ccc(O)cc1 stands at 0.138

----------
# test.parameters: in toluene, 280.65 K
recorded.endpoint: solubility (mole fraction)
Please state the value as a number alone, without comment.

For reference, reported solubility (mole fraction) for O=Cc1ccc(O)cc1 stands at 0.00109

----------
# test.parameters: in ethyl acetate, 295.65 K
recorded.endpoint: solubility (mole fraction)
Please state the value as a number alone, without comment.

For reference, reported solubility (mole fraction) for O=Cc1ccc(O)cc1 stands at 0.141

----------
# test.parameters: in DMF, 298.15 K
recorded.endpoint: solubility (mole fraction)
Please state the value as a number alone, without comment.

For reference, reported solubility (mole fraction) for O=Cc1ccc(O)cc1 stands at 0.214

----------
# test.parameters: in methanol, 278.15 K
recorded.endpoint: solubility (mole fraction)
Please state the value as a number alone, without comment.

For reference, reported solubility (mole fraction) for O=Cc1ccc(O)cc1 stands at 0.0342

----------
# test.parameters: in n-propanol, 305.65 K
recorded.endpoint: solubility (mole fraction)

For reference, reported solubility (mole fraction) for O=Cc1ccc(O)cc1 stands at 0.165

----------
# test.parameters: in methanol, 303.15 K
recorded.endpoint: solubility (mole fraction)

For reference, reported solubility (mole fraction) for O=Cc1ccc(O)cc1 stands at 0.121

----------
# test.parameters: in acetonitrile, 295.65 K
recorded.endpoint: solubility (mole fraction)
Please state the value as a number alone, without comment.

For reference, reported solubility (mole fraction) for O=Cc1ccc(O)cc1 stands at 0.0704
